B1: CPEB3 Ribozyme (parent)
chain: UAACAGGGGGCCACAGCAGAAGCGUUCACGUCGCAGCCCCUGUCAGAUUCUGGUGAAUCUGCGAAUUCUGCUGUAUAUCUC

Variants of: B1
Assay: self-cleavage, relative activity (ratio to wild type); higher = more cleavage; in vitro, sequencing
Classes by self-cleavage: category 1 (below 0.2), category 2 (0.2 to below 0.6), category 3 (0.6 or more)

Sample answers from the record:
UAACAGGGGGCCACAGCAGAAGCGUUCACGUCGCAGCCCCUGACUGAUUCUGGUGAAUCUGCGAAUUCUGCUGUAUAUCUC ... category 3
UAACAGGGGGCCACAGCAGAAGCGUUCACGUCGCAGCCCCUGUCAGAUUCUCGUGAAUCUGCGAAUUCUGCUGUAUGUCUC ... category 3
UAACAGGGGGCCACAGCAGAAGGGUUCAUGUCGCAGCCCCUGUCAGAUUCUGGUGAAUCUGCGAAUUCUGCUGUAUAUCUC ... category 2
UAACAGGGGGCCGCAGCAGAAGCGUUCACGUCGCAGCCCCUGUCAGAUUCUGGUGAAUCUGCGAAUUCUGCAGUAUAUCUC ... category 2
UAACAGGGAGCCACAGCAGAAGCGUUCACGUCGCAGCCCCUGUCAGAUUCUGGUGAAUCUGCGAAUUCUGCUAUAUAUCUC ... category 2
UAACAGGUGGCCACAGCAGAAGCGUUCACGUCGCAGCCCCUGUCAGAUUCUGGUGAAUCUGCGAAUUCUGCUGUGUAUCUC ... category 1

Task: Returns: class label. Input: "UAACAGGGGGCCACAGCAGAAGCGUUCACGUCGCAGCCCCUGUCAGAGUCUGGUGAAUCUGCGAAUUCUGCUGUGUAUCUC"
Output: category 2

Task: And the next one, "GAACAGGGGGCCACAGCAGAAGCGUUCACGUCGCAGCCCCUGUCAGAUUCUGGUGACUCUGCGAAUUCUGCUGUAUAUCUC" ?
Output: category 2

Task: And the next one, "UAACAGGGGGCCACAGCAGAAGCGUUCACGUCGCAUCCCCUGUCAGAUUCGGGUGAAUCUGCGAAUUCUGCUGUAUAUCUC" ?
Output: category 1
